Reported total RNA concentration, times that of compound 23 by item:
experiment: Encapsulation rate, drug loading concentration and total RNA concentration detection (RiboGreen); type: physicochemical
Write down the numeric answer in times and omit the unit.

Sample records with total RNA concentration, times that of compound 23:
input: Find the recorded total RNA concentration, times that of compound 23 belonging to CCCCCCCCC(CCCCCCCC)COC(=O)CCCCCN(CCCCCC(=O)OCC(CCCCCCCC)CCCCCCCC)CCN(C)CCO and report it.
output: 1.34

input: Repeat with CCCCCCCCCCCOC(=O)CCCCCN(CCCCCCCC(=O)OCC(CCCCCCCC)CCCCCCCC)CCN(C)CCO
output: 1.32

input: Repeat with CCCCCCCCCCOC(=O)CCCN(CCCCCC(=O)OCC(CCCCCCCC)CCCCCCCC)CCN(C)CCO
output: 1.34

input: Repeat with CCCCCCCCCCCOC(=O)CCCCCN(CCCCCCCC(=O)OC(CCCCCCC)CCCCCCC)CCN(C)CCO
output: 1.28

Kindly consider the entry below.
input: Find the recorded total RNA concentration, times that of compound 23 belonging to CCCCCCCCCCCOC(=O)CCCCCN(CCCCCCCC(=O)OC(CCCCCCCC)CCCCCCCC)CCN(C)CCO and report it.
output: 1.39

---

Test: Encapsulation rate, drug loading concentration and total RNA concentration detection (RiboGreen)
Type: physicochemical
Conditions: difference of rates
Description: Encapsulation rate is a key quality attribute of liposomes. It refers to the percentage of drug content encapsulated in the lipid bilayer to the total amount of drug added, which can reflect the degree of drug encapsulation in liposomes. […] An appropriate amount of sample was taken and added to an appropriate amount of 1×TE buffer, which was diluted to a solution containing about 2.8 μg of the test sample per 1 mL. […] The plate was centrifuged, and read using an ELISA reader, and the data was processed.
Strictly below 30% in encapsulation rate higher than that of HHMA: T. Otherwise: F.

Example results:
input: Lab note: confirm whether the reported encapsulation rate higher than that of HHMA for this compound is below 30%, equality not counting. compound: CCCCCCCCCCCOC(=O)CCCCCN(CCCCCCCC(=O)OC(CCCCCCCC)CCCCCCCC)CCN(C)CCO [YK-201]
output: T

input: Repeat with CCCCCCCCCCCOC(=O)CCCCCN(CCCCCCCC(=O)OCC(CCCCCCCC)CCCCCCCC)CCN(C)CCO [YK-202]
output: T

Please look at the following compound next.
input: Lab note: confirm whether the reported encapsulation rate higher than that of HHMA for this compound is below 30%, equality not counting. compound: CCCCCCCCC(CCCCCCCC)COC(=O)CCCCCN(CCCCCC(=O)OCC(CCCCCCCC)CCCCCCCC)CCN(C)CCO [YK-209]
output: F

---

test: Particle size and polydispersity index (PDI) of nanolipid particles, dynamic light scattering; assay type: physicochemical; conditions: LNP formulation prepared from the named cationic lipid, 25° C
Strictly below 200 nm in Particle size: rule met. Otherwise: rule not met.

Example results:
input: Lab note: confirm whether the reported Particle size for this compound is below 200 nm, equality not counting. compound: CCCCCCCCC(CCCCCCCC)COC(=O)CCCCCN(CCCCCC(=O)OCC(CCCCCCCC)CCCCCCCC)CCN(CCO)CCO
output: rule met

input: Repeat with CCCCCCCCC(CCCCCCCC)OC(=O)CCCCCN(CCCCCC(=O)OC(CCCCCCCC)CCCCCCCC)CCN(C)CCO
output: rule not met

input: Repeat with CCCCCCCCCCCOC(=O)CCCCCN(CCCCCCCC(=O)OCC(CCCCCCCC)CCCCCCCC)CCN(C)CCO
output: rule met

input: Repeat with CCCCCCC(CCCCCC)CCOC(=O)CCCCCN(CCCCCC(=O)OCCC(CCCCCC)CCCCCC)CCN(C)CCNC
output: rule not met

input: Repeat with CCCCCCCCC(CCCCCCCC)OC(=O)CCCCCN(CCCCCC(=O)OC(CCCCCCCC)CCCCCCCC)CCN(C)CCNC
output: rule met

input: Repeat with CCCCCCCCCCCOC(=O)CCCCCN(CCCCCCCC(=O)OC(CCCCCCCC)CCCCCCCC)CCN(C)CCNC
output: rule not met

Please look at the following compound next.
input: Lab note: confirm whether the reported Particle size for this compound is below 200 nm, equality not counting. compound: CCCCCCCCCCOC(=O)CCCN(CCCCCC(=O)OCC(CCCCCCCC)CCCCCCCC)CCOC(=O)SCCCN(C)C
output: rule not met

From: patent US20260007601A1
